SYSTEM UNDER TEST: T1, human FRα (Homo sapiens, UniProt P15328)
T1 construct: CD33 leader (signal peptide) (N, cleaved yes); made in house; host or cells: in-house suspension-adapted CHO cell line
T1 sequence (P15328 with tags, fused parts or gaps): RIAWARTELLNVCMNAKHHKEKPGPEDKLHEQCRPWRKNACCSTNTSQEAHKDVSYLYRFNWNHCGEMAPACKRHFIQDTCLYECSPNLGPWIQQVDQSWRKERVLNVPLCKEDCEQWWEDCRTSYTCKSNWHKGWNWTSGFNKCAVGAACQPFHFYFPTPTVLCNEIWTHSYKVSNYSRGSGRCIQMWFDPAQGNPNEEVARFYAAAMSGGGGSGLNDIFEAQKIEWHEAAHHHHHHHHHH
METHOD: HTRF antigen (IgG) binding assay
TEST CONDITIONS: hybridoma supernatant, 1 nM biotinylated antigen; binder >30% delta F
Procedure: The negative control ratio was derived from nonspecific binding (NSB) control wells. Curves were analysed using GraphPad Prism software using a four-parameter logistic curve-fitting equation.
Recorded HTRF IgG binding assay (% Delta F) Human FRα by entry
Write it as a number; the unit % Delta F goes unstated.

Example molecules with recorded HTRF IgG binding assay (% Delta F) Human FRα:
MOLECULE	REPORTED VALUE
AB1370026: anti-FRα fully human IgG1 antibody; VH SEQ ID NO: 39, VL SEQ ID NO: 40 (antibody, V domains shown) VH: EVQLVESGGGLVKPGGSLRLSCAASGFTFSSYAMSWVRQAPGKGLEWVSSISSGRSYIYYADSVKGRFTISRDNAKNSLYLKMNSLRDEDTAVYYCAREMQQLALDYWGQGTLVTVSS VL: DIQMTQSPSSLSASVGDRVTITCRASQGISNFLAWFQQAPGKAPKSLIYAASSLQSGVPSKFSGSGSGTDFTLTISSLQPEDFATYYCQQYNSYPFTFGQGTKLEIK	270.58
AB1370083: anti-FRα fully human IgG1 antibody; VH SEQ ID NO: 43, VL SEQ ID NO: 44 (antibody, V domains shown) VH: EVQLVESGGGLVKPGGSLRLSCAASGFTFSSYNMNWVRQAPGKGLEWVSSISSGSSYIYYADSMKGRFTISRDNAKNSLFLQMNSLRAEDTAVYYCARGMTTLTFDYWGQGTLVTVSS VL: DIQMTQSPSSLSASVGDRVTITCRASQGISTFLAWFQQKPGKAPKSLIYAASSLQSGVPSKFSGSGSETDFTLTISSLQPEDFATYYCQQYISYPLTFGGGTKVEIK	139.98
AB1370035: anti-FRα fully human IgG1 antibody; VH SEQ ID NO: 41, VL SEQ ID NO: 42 (antibody, V domains shown) VH: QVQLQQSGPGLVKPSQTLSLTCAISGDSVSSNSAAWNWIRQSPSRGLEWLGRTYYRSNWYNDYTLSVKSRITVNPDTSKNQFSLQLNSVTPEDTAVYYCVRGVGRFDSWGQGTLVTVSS VL: DIQMTQSPSTLSASVGDRVIITCRASQSISSWLAWYQQKPGKAPKLLIYKASSLESGVPSRFSGSGSGTEFTLTITSLQPDDFASYYCQEYKTYSIFTFGPGTKVDIK	225.19

Now for the molecule whose HTRF IgG binding assay (% Delta F) Human FRα we want.
Query string: Look up and state reported HTRF IgG binding assay (% Delta F) Human FRα for AB1370095: anti-FRα fully human IgG1 antibody; VH SEQ ID NO: 45, VL SEQ ID NO: 46 (antibody, V domains shown) VH: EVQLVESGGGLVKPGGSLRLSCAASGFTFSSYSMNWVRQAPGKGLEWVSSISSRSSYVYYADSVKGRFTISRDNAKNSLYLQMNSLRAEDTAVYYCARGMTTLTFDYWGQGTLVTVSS VL: DIQMTQSPSSLSASVGDRVTITCRASQGISSFLAWFQQKPGKAPKSLIYAASSLQSGVPSKFSGSGSGTDFTLTISSLQPEDFATYYCQQYNSYPLTFGGGTKVEIK
Result string: 126.25
